Taken from patent US20180162947A1.

tested-on: T1, recombinant human CSF-1R (form not stated) (human, UniProt P07333 20-512, limits assumed)
T1 construct: for the ELISA no species is stated; also called recombinant CSF-1R; recombinant CSF-1R protein
measurement-protocol: BIAcore, experiment 1 of 3
# Kd values compiled below
Write it as a number; the unit pM goes unstated.

969gH2gL1 (antibody, human IgG4 S228P, kappa, name in Kabat numbering, V domains shown, Humanised IgG4 (S241P)/kappa; positions are Kabat; also called Ab969.g6) VH: EVTLKESGPALVKPTQTLTLTCTFSGFSLTTYGMGVGWIRQPPGKALEWLANIWWDDDKYYNPSLKNRLTISKDTSKNQVVLTMTNMDPVDTATYYCARIGPIKYPTAPYRYFDFWGQGTMVTVSS VL: DIQMTQSPSSLSASVGDRVTITCLASEDIYDNLAWYQKKPGKAPKLLIYYASSLQDGVPSRFSGSGSGTDYTLTISSLQPEDFATYFCLQDSEYPWTFGGGTKVEIKR = 3.6
969gH1gL1 (antibody, human IgG4 S228P, kappa, name in Kabat numbering, V domains shown, Humanised IgG4 (S241P)/kappa; positions are Kabat; also called Ab969.g1) VH: EVTLKESGPALVKPTQTLTLTCTFSGFSLTTYGMGVGWIRQPPGKALEWLANIWWDDDKYYNPSLKNRLTISKDTSKNQAVLTMTNMDPVDTATYYCARIGPIKYPTAPYRYFDFWGQGTMVTVSS VL: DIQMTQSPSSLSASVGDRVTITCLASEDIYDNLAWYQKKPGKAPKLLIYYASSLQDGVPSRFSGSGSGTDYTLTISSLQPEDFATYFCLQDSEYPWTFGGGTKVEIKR = 3.2

I'd like to know its Kd. The binder in question is 969gH2gL4 (antibody, human IgG4 S228P, kappa, name in Kabat numbering, V domains shown, Humanised IgG4 (S241P)/kappa; positions are Kabat; also called Ab969.g7) VH: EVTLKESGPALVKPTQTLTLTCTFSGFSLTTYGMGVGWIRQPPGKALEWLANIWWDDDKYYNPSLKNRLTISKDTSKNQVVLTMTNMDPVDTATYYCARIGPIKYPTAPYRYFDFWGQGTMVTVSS VL: DIQMTQSPSSLSASVGDRVTITCLASEDIYDNLAWYQKKPGKAPKLLIYYASSLQDGVPSRFSGSGSGTDYTLTISSLQPEDFATYYCLQDSEYPWTFGGGTKVEIKR
3
